Protocol: Measurement of transferability into brain and clearance (radioactive accumulation in brain after intravenous injection)
Assay type: in vivo, male Wistar rats
Protocol conditions: rats, 5 min after injection
Result type: Radioactive accumulation per unit weight of brain, after 5 min. (% ID/g)

Worked examples, 3 compounds total:
> print(dat)
                                   compound  result.value
1     Cc1cc2nc(-c3ccc(OCCO)cc3)cn2cc1[123I]          0.61
2  COc1ccc2nc(-c3ccc(OCCCF)c([123I])c3)cn2c1          0.53
3  CN(C)c1ccc(-c2cn3cc([123I])ccc3n2)cc1 [[^123I]-IMPY, reference compound]          0.97

[I] COc1cc(-c2cn3cc([123I])ccc3n2)ccc1OCCF
[II] COc1ccc2nc(-c3ccc(OCCF)c([123I])c3)cn2c1
Query string: Which record would sort first by descending Radioactive accumulation per unit weight of brain, after 5 min., I or II ? Pick one and reply with its label.
Result string: II

###

Protocol: Measurement of transferability into brain and clearance (radioactive accumulation in brain after intravenous injection)
Format: in vivo, male Wistar rats
Protocol conditions: rats, 2 min after injection
Result type: Radioactive accumulation per unit weight of brain, after 2 min. (% ID/g)

Here are 3 compounds together with their reported answers.
> print(dat)
                                   compound  result.value
1  Cc1cc2nc(-c3ccc(OCCO)cc3)cn2cc1[123I] [Compound 4]          0.80
2  CN(C)c1ccc(-c2cn3cc([123I])ccc3n2)cc1 [[^123I]-IMPY, reference compound]          1.19
3  COc1ccc2nc(-c3ccc(OCCCF)c([123I])c3)cn2c1 [Compound 1]          0.74

[I] COc1ccc2nc(-c3ccc(OCCF)c([123I])c3)cn2c1 [Compound 3]
[II] COc1cc(-c2cn3cc([123I])ccc3n2)ccc1OCCF [Compound 2]
Query string: Which is greater in Radioactive accumulation per unit weight of brain, after 2 min., the first item I or the second item II ? I would appreciate it if you answered with the label of your choice.
Result string: I
(I: 0.70 % ID/g, II: 0.42 % ID/g)

###

Protocol: Measurement of partition coefficient based on the octanol extraction method (log Poctanol)
Type: physicochemical
Protocol conditions: octanol / 10 mmol/L phosphate buffer (pH 7.4); read-out: logPoctanol value
Result type: logD

Please review the entries below; each comes with its answer.
> print(dat)
                                smiles.text  result.value
1     Cc1cc2nc(-c3ccc(OCCO)cc3)cn2cc1[123I]           2.7
2  COc1ccc2nc(-c3ccc(OCCCF)c([123I])c3)cn2c1           2.3

[P] COc1ccc2nc(-c3ccc(OCCF)c([123I])c3)cn2c1
[Q] COc1cc(-c2cn3cc([123I])ccc3n2)ccc1OCCF
Query string: Please tell me which of the two, P or Q , has the higher reported logD value. Output the label that corresponds to your choice.
Result string: P
(P: 2.6, Q: 1.8)

###

Protocol: Measurement of transferability into brain and clearance (radioactive accumulation in brain after intravenous injection)
Format: in vivo, male Wistar rats
Protocol conditions: rats, 60 min after injection
Result type: Radioactive accumulation per unit weight of brain, after 60 min. (% ID/g)

> print(dat)
                                   molecule  result.value
1  COc1ccc2nc(-c3ccc(OCCF)c([123I])c3)cn2c1          0.03
2  CN(C)c1ccc(-c2cn3cc([123I])ccc3n2)cc1 [[^123I]-IMPY, reference compound]          0.09
3  COc1ccc2nc(-c3ccc(OCCCF)c([123I])c3)cn2c1          0.03

[A] Cc1cc2nc(-c3ccc(OCCO)cc3)cn2cc1[123I]
[B] COc1cc(-c2cn3cc([123I])ccc3n2)ccc1OCCF
Query string: For the pair A and B , which member has the lower Radioactive accumulation per unit weight of brain, after 60 min. number? Refer to your chosen item by its label in the answer.
Result string: B

###

Protocol: Measurement of transferability into brain and clearance (radioactive accumulation in brain after intravenous injection)
Format: in vivo, male Wistar rats
Protocol conditions: rats, 30 min after injection
Result type: Radioactive accumulation per unit weight of brain, after 30 min. (% ID/g)

> print(dat)
                                   molecule  result.value
1  COc1ccc2nc(-c3ccc(OCCCF)c([123I])c3)cn2c1          0.11
2  CN(C)c1ccc(-c2cn3cc([123I])ccc3n2)cc1 [[^123I]-IMPY, reference compound]          0.23

[1] COc1cc(-c2cn3cc([123I])ccc3n2)ccc1OCCF
[2] COc1ccc2nc(-c3ccc(OCCF)c([123I])c3)cn2c1
[3] Cc1cc2nc(-c3ccc(OCCO)cc3)cn2cc1[123I]
Query string: // smallest Radioactive accumulation per unit weight of brain, after 30 min. at index 0, largest at the end Arrange the labels as the request states and list them.
Result string: 1, 2, 3
(1: 0.04 % ID/g, 2: 0.08 % ID/g, 3: 0.12 % ID/g)

Where these numbers come from: patent US8399672B2
